target: Phosphotyrosine protein phosphatase (Mycobacterium tuberculosis); experiment: Inhibition of Mycobacterium tuberculosis PtpB using p-nitrophenyl phosphate as substrate preincubated for 10 mins followed by substrate addition measured every minute for 10 mins by Michaelis-Menten plot analysis
Sequence (A0A045ISB3 whole entry): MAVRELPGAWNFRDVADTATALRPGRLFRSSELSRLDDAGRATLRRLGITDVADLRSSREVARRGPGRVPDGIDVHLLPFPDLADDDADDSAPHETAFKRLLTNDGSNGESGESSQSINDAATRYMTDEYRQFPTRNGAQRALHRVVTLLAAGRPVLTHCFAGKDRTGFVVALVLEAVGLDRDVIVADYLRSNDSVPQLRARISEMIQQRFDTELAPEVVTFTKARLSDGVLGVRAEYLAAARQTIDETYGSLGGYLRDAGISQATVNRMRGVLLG
pKi: −log10 of the molar value.
READOUT_TYPE: pKi

[
  {
    "SMILES_NOTATION": "CC(C)=CCc1c(O)ccc(C(=O)[C@@H]2[C@@H](c3ccc(O)cc3O)CC(C)=C[C@H]2c2c(O)cc(O)c3c(=O)c(CC=C(C)C)c(-c4ccc(O)cc4O)oc23)c1O",
    "EXPERIMENTAL_SYSTEM": "Phosphotyrosine protein phosphatase (Mycobacterium tuberculosis)",
    "VALUE_MEASURED": 6.70
  },
  {
    "SMILES_NOTATION": "CC(C)=CCc1c(-c2ccc(O)cc2O)oc2c([C@@H]3C=C(C)C[C@H](c4ccc(O)cc4O)[C@H]3C(=O)c3ccc(O)cc3O)c(O)cc(O)c2c1=O",
    "EXPERIMENTAL_SYSTEM": "Phosphotyrosine protein phosphatase (Mycobacterium tuberculosis)",
    "VALUE_MEASURED": 6.41
  }
]

====

molecular target: Tyrosine-protein phosphatase non-receptor type 12 (Homo sapiens)
Sequence (Q05209 whole entry): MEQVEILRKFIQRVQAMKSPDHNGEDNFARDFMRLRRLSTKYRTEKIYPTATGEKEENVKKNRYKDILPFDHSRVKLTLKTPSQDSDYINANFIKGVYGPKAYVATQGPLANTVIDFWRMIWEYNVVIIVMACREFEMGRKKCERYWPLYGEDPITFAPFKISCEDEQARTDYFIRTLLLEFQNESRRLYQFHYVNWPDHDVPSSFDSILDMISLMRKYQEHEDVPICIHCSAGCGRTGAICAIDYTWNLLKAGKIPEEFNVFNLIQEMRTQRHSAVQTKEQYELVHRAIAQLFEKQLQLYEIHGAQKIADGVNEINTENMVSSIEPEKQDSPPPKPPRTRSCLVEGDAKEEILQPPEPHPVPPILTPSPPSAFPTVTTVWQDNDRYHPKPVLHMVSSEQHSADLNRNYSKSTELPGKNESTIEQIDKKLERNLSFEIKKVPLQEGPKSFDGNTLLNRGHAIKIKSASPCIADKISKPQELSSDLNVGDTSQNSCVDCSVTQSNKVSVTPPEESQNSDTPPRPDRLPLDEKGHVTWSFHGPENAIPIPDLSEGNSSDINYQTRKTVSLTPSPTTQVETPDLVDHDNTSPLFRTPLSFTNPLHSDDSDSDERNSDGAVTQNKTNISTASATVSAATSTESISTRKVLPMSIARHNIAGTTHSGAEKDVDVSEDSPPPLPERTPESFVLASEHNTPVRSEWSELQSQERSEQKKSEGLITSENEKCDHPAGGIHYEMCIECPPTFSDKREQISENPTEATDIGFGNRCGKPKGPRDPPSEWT
Labelling field: enter MET if recorded IC50 is less than 10 µM. Enter NOT MET if it equals or exceeds that cut-off.

[
  {
    "COMPOUND": "Oc1cc(O)cc(/C=C/c2ccc(O)cc2O)c1 [OXYRESVERATROL]",
    "GROUP_LABEL": "NOT MET"
  },
  {
    "COMPOUND": "CC(C)=CCc1c(-c2ccc(O)cc2O)oc2c([C@@H]3C=C(C)C[C@H](c4ccc(O)cc4O)[C@H]3C(=O)c3ccc(O)cc3O)c(O)cc(O)c2c1=O",
    "GROUP_LABEL": "NOT MET"
  },
  {
    "COMPOUND": "CC1=C[C@@H](c2c(O)ccc([C@@H]3CC(=O)c4c(O)cc(O)cc4O3)c2O)[C@H](C(=O)c2ccc(O)cc2O)[C@@H](c2ccc(O)cc2O)C1",
    "GROUP_LABEL": "NOT MET"
  },
  {
    "COMPOUND": "CC(C)=CCc1c(O)ccc(C(=O)[C@@H]2[C@@H](c3ccc(O)cc3O)CC(C)=C[C@H]2c2c(O)cc(O)c3c(=O)c(CC=C(C)C)c(-c4ccc(O)cc4O)oc23)c1O",
    "GROUP_LABEL": "MET"
  },
  {
    "COMPOUND": "CC(C)=CCc1c(-c2ccc(O)cc2O)oc2c3c(cc(O)c2c1=O)OC(C)(C)C=C3 [MORUSIN]",
    "GROUP_LABEL": "NOT MET"
  },
  {
    "COMPOUND": "CC(C)=CCc1c(O)cc2c(c1O)C(=O)C[C@@H](c1cc3c(cc1O)OC(C)(C)C=C3)O2 [CUDRAFLAVANONE A]",
    "GROUP_LABEL": "NOT MET"
  },
  {
    "COMPOUND": "O=c1cc(-c2ccc(O)cc2O)oc2cc(O)cc(O)c12 [NORARTOCARPETIN]",
    "GROUP_LABEL": "NOT MET"
  },
  {
    "COMPOUND": "CC(C)=CCc1c(O)ccc(C(=O)[C@H]2[C@@H](c3c(O)cc(-c4cc5ccc(O)cc5o4)cc3O)C=C(C)C[C@@H]2c2ccc(O)cc2O)c1O [CHALCOMORACIN]",
    "GROUP_LABEL": "MET"
  }
]

Where these numbers come from: ChEMBL document CHEMBL4251612
